# Tested on: A549 (lung carcinoma) cell line
# assay_protocol: Sulforhodamine-B (SRB) microculture colorimetric cytotoxicity assay, A549
# Format: cell-based
# condition_parameters: 96 hr treatment, A549 lung carcinoma cells, read-out: IC50 ± SD, A549
measured_parameter: IC50 (nM)
Answers are plain numbers, in nM.

Task: Please report the recorded IC50 for N.N.[Cl][Pt][Cl] [Cisplatin, cisplatin, reference compound] .
Output: 1510

----------
# System: A549 lung carcinoma cell line
# assay_protocol: CellTiter-Blue viability assay, A549 (Examples 18-22)
# Type: cell-based
# condition_parameters: 96 hr treatment, approximately 5,000 A549 cells per well
measured_parameter: IC50 (µM)
One number for each entry, in µM.

Task: Quick one: IC50 for N.N.[Cl][Pt][Cl] [Cisplatin, cisplatin, reference compound] ?
Output: 82.7
